Here, each record is paired with measured ASPARTATE AMINOTRANSFERASE data.
Organism: Rattus norvegicus
ASSAY_PROCEDURE: DrugMatrix - Regimen: Daily Repeat
Assay type: toxicity, organism-based, Sprague-Dawley
Set-up: regimen Daily Repeat, gender Male, age 6-8 weeks
CONDITION_DETAILS: in vivo, po, 100 mg/kg, 72 h, tissue Plasma, route oral GAVAGE, dose level Low, time 3 day, vehicle .5 % CMC
Answer in u/L, number only, no unit symbol.

Please review the following examples before continuing.
* CC=Cc1ccc(O)c(OC)c1 | 88.33
* CC[C@]1(O)CC[C@H]2[C@@H]3CCC4=CCCC[C@@H]4[C@H]3CC[C@@]21C | 66.33
* C#C[C@]1(O)CC[C@H]2[C@@H]3CCC4=Cc5oncc5C[C@]4(C)[C@H]3CC[C@@]21C | 76.33

Next compound, please.
Which value of ASPARTATE AMINOTRANSFERASE has been reported for Nc1nc2c(c(=O)[nH]1)N(C=O)C(CNc1ccc(C(=O)N[C@@H](CCC(=O)O)C(=O)O)cc1)CN2 (some centres undefined) in the records?
83.67

---

Recorded ALKALINE PHOSPHATASE for the following molecules
Organism: Rattus norvegicus
ASSAY_PROCEDURE: DrugMatrix - Regimen: Daily Repeat
Format: toxicity, organism-based, Sprague-Dawley
Parameters: regimen Daily Repeat, gender Male, age 6-8 weeks
CONDITION_DETAILS: in vivo, po, 0 mg/kg, 120 h, tissue Plasma, route oral GAVAGE, dose level Control, time 5 day, vehicle 100 % WATER
Numeric answer only, unit u/L assumed.

Example cases with answers are listed next.
- CCCCCCCCCCCCCCCC[n+]1ccccc1.[Br-]: 355.5
- Nc1ccc(S(=O)(=O)Nc2ncccn2)cc1: 393
- OCCO: 336.83
- CCN[C@@H](C)Cc1cccc(C(F)(F)F)c1: 393
- CC[C@H]1OC(=O)[C@H](C)[C@@H](O[C@H]2C[C@@](C)(OC)[C@@H](O)[C@H](C)O2)[C@H](C)[C@@H](O[C@@H]2O[C@H](C)C[C@H](N(C)C)[C@H]2O)[C@](C)(OC)C[C@@H](C)C(=O)[C@H](C)[C@@H](O)[C@]1(C)O: 308.67
- CCN(CC)CC#CCOC(=O)C(O)(c1ccccc1)C1CCCCC1 (stereo not drawn): 371.5
- O=C(O)c1cc(=O)c2c(OCC(O)COc3cccc4oc(C(=O)O)cc(=O)c34)cccc2o1: 303.5

Then there is this molecule:
Given the molecule O=P1(N(CCCl)CCCl)NCCCO1 (stereo not drawn) [CYCLOPHOSPHAMIDE ANHYDROUS] , what is its reported ALKALINE PHOSPHATASE?
343.17

---

Species on record: Rattus norvegicus
ASSAY_PROCEDURE: DrugMatrix - Regimen: Daily Repeat
Type: toxicity, organism-based, Sprague-Dawley
Parameters: regimen Daily Repeat, gender Male, age 6-8 weeks
CONDITION_DETAILS: in vivo, po, 0 mg/kg, 120 h, tissue Plasma, route oral GAVAGE, dose level Control, time 5 day, vehicle .5 % CMC
MEASUREMENT_LABEL: CREATINE PHOSPHOKINASE (u/L)
Write the answer as a number in u/L, unit excluded.

* C[C@@H](O)[C@H]1C(=O)N2C(C(=O)O)=C(S[C@@H]3CN[C@H](C(=O)N(C)C)C3)[C@H](C)[C@H]12 | 231.83
* CC(C)(Sc1cc(C(C)(C)C)c(O)c(C(C)(C)C)c1)Sc1cc(C(C)(C)C)c(O)c(C(C)(C)C)c1 | 231.83
* COc1ccc(/C=C/C(=O)Nc2ccccc2C(=O)O)cc1OC | 231.83
* COc1ccccc1OCC(O)COC(N)=O (configuration not stated) | 417.5
* CO[C@H]1C[C@@H]2CC[C@@H](C)[C@@](O)(O2)C(=O)C(=O)N2CCCC[C@H]2C(=O)O[C@H]([C@H](C)C[C@@H]2CC[C@@H](O)[C@H](OC)C2)CC(=O)[C@H](C)/C=C(\C)[C@@H](O)[C@@H](OC)C(=O)[C@H](C)C[C@H](C)/C=C/C=C/C=C/1C | 312

Name the recorded CREATINE PHOSPHOKINASE for CCOC(=O)[C@H](CCc1ccccc1)N[C@@H](C)C(=O)N1Cc2ccccc2C[C@H]1C(=O)O .
628.17

Which measured CREATINE PHOSPHOKINASE value corresponds to Cc1cnc(C(=O)NCCc2ccc(S(=O)(=O)NC(=O)NC3CCCCC3)cc2)cn1 [GLIPIZIDE] ?
628.17

---

Consider the following compounds and their measured EOSINOPHIL readings.
Organism: Rattus norvegicus
ASSAY_PROCEDURE: DrugMatrix - Regimen: Daily Repeat
Format: toxicity, organism-based, Sprague-Dawley
Parameters: regimen Daily Repeat, gender Male, age 6-8 weeks
CONDITION_DETAILS: in vivo, po, 0 mg/kg, 120 h, tissue Blood, route oral GAVAGE, dose level Control, time 5 day, vehicle 100 % WATER
Field: numeric (%). Do not append units.

Example cases with answers are listed next.
* O=C(O)c1cc(=O)c2c(OCC(O)COc3cccc4oc(C(=O)O)cc(=O)c34)cccc2o1 [CROMOLYN] | 0
* CCN(CC)CC#CCOC(=O)C(O)(c1ccccc1)C1CCCCC1 (stereo unspecified) [OXYBUTYNIN] | 0.17
* Cc1c(N(C)CS(=O)(=O)[O-])c(=O)n(-c2ccccc2)n1C.[Na+] [DIPYRONE SODIUM] | 0

Turning now to a further compound:
Endpoint output: EOSINOPHIL of CCCc1nn(C)c2c(=O)[nH]c(-c3cc(S(=O)(=O)N4CCN(C)CC4)ccc3OCC)nc12 . Value?
0

---

Species: Rattus norvegicus
ASSAY_PROCEDURE: DrugMatrix - Regimen: Daily Repeat
Format: toxicity, organism-based, Sprague-Dawley
Set-up: regimen Daily Repeat, gender Male, age 6-8 weeks
CONDITION_DETAILS: in vivo, ip, 40 mg/kg, 120 h, tissue Blood, route intraperitoneal, dose level High, time 5 day, vehicle 100 % SALINE
MEASUREMENT_LABEL: ABSOLUTE EOSINOPHIL (cells/µL)
Kindly answer with a numeric value in cells/µL, unit omitted.

Given the compound NC[C@H]1O[C@H](O[C@H]2[C@H](O)[C@@H](O[C@H]3O[C@H](CO)[C@@H](O)[C@H](N)[C@H]3O)[C@H](N)C[C@@H]2N)[C@H](N)C[C@@H]1O , what is its reported ABSOLUTE EOSINOPHIL?
120

---

Species on record: Rattus norvegicus
ASSAY_PROCEDURE: DrugMatrix - Regimen: Daily Repeat
Assay type: toxicity, organism-based, Sprague-Dawley
Design: regimen Daily Repeat, gender Male, age 6-8 weeks
CONDITION_DETAILS: in vivo, po, 0.0007 mg/kg, 120 h, tissue Blood, route oral GAVAGE, dose level Low, time 5 day, vehicle .5 % CMC
MEASUREMENT_LABEL: ABSOLUTE MONOCYTE (cells/µL)
Output spec: scalar in cells/µL, unitless text.

# get_value(readout='ABSOLUTE MONOCYTE', item= Clc1cc2c(cc1Cl)Oc1cc(Cl)c(Cl)cc1O2 )
220

---

Species on record: Rattus norvegicus
ASSAY_PROCEDURE: DrugMatrix - Regimen: Daily Repeat
Type: toxicity, organism-based, Sprague-Dawley
Set-up: regimen Daily Repeat, gender Male, age 6-8 weeks
CONDITION_DETAILS: in vivo, po, 1500 mg/kg, 72 h, tissue Plasma, route oral GAVAGE, dose level High, time 3 day, vehicle .5 % CMC
MEASUREMENT_LABEL: ALBUMIN (G/DL)
Field: numeric (G/DL). Do not append units.

- CCOC(=O)[C@H](CCc1ccccc1)N[C@@H](C)C(=O)N1CCC[C@H]1C(=O)O: 4.27
- C[C@@H](O)[C@H]1C(=O)N2C(C(=O)O)=C(S[C@@H]3CN[C@H](C(=O)N(C)C)C3)[C@H](C)[C@H]12: 4.33
- O=c1cc(-c2ccccc2)oc2ccc3ccccc3c12: 3.53
- Nc1nc2c(c(=O)[nH]1)N(C=O)C(CNc1ccc(C(=O)N[C@@H](CCC(=O)O)C(=O)O)cc1)CN2 (stereo not given in full): 4.3

The record that follows has no ALBUMIN shown yet.
Reported ALBUMIN, compound CC(C)(Sc1cc(C(C)(C)C)c(O)c(C(C)(C)C)c1)Sc1cc(C(C)(C)C)c(O)c(C(C)(C)C)c1 : ____
4.2

---

Organism: Rattus norvegicus
ASSAY_PROCEDURE: DrugMatrix - Regimen: Daily Repeat
Format: toxicity, organism-based, Sprague-Dawley
Set-up: regimen Daily Repeat, gender Male, age 6-8 weeks
CONDITION_DETAILS: in vivo, po, 0 mg/kg, 72 h, tissue Plasma, route oral GAVAGE, dose level Control, time 3 day, vehicle 100 % SALINE
Listing: GLUCOSE of selected compounds
// note: answer is a bare numeric in mg/dL

Recorded GLUCOSE, per entry:
* Cc1cc(CC(=O)O)n(C)c1C(=O)c1ccc(Cl)cc1 [ZOMEPIRAC] | 173.83
* Oc1ccccc1O [CATECHOL] | 173.83
* CCCc1nn(C)c2c(=O)[nH]c(-c3cc(S(=O)(=O)N4CCN(C)CC4)ccc3OCC)nc12 | 144

What value of measured GLUCOSE is listed for CC(=O)OCC(CCn1cnc2cnc(N)nc21)COC(C)=O [FAMCICLOVIR] ?
144
